# credit: patent US10770169B2

- Test system: panel of 55 breast cancer cell lines
- assayNotes: Cell growth inhibition assay (Cell Titer Glo, 72 h, 9 doses; GI50, TGI, LC50)
- Assay type: cell-based, human
- appliedConditions: Homo sapiens, MDA-MB-436, cell line MDAMB436; read-out: GI50 (converted)
testReadout: GI50
Write your answer as a measured quantity: the number, then the unit.

Example compounds with recorded GI50:
>>> valueobserved("COC1=C2C[C@@H](C)C[C@H](OC)[C@H](O)[C@@H](C)/C=C(\\C)[C@H](OC(N)=O)[C@@H](OC)/C=C\\C=C(/C)C(=O)NC(=CC1=O)C2=O")
"0.148 µM"
>>> valueobserved("Nc1nc2[nH]cc(CCc3ccc(C(=O)N[C@@H](CCC(=O)O)C(=O)O)cc3)c2c(=O)[nH]1")
"2950 µM"
>>> valueobserved("C/C(=C\\c1csc(C)n1)[C@@H]1C[C@@H]2O[C@]2(C)CCC[C@H](C)[C@H](O)[C@@H](C)C(=O)C(C)(C)[C@@H](O)CC(=O)N1 [Ixabepilone]")
"0.00575 µM"

Now turn to the next compound.
Value of GI50 reported for the compound CS(=O)(=O)CCNCc1ccc(-c2ccc3ncnc(Nc4ccc(OCc5cccc(F)c5)c(Cl)c4)c3c2)o1 is 16.6 µM
